experiment: In vivo pharmacokinetics study after single administration in Beagle dogs; conditions: dog, plasma, 2 mg/kg; male Beagle dogs, 2 mpk intravenous injection
property: AUC(0-inf) (ng·h/mL)
Write it as a number; the unit ng·h/mL goes unstated.

Query: Bench note: what AUC(0-inf) did COCCN1C[C@@H](n2ccc(F)c2)[C@H](NC(=O)Nc2c(C)c(-c3cnc(C4(F)COC4)nc3)nn2-c2ccccc2)C1 show?
Result: 1840

* * *

test: In vivo pharmacokinetics study after single administration in rats; design: species or system Sprague Dawley rats; settings: Sprague Dawley, rat, plasma, 300 mg/kg; male rats, 300 mpk oral
property: Cmax (ng/mL)
All answers are understood in ng/mL, so give the number only.

Query: // returns reported Cmax for input COCCN1C[C@@H](n2ccc(F)c2)[C@H](NC(=O)Nc2c(C)c(-c3cnc(C4(F)COC4)nc3)nn2-c2ccccc2)C1
Result: 47600

* * *

experiment: In vivo pharmacokinetics study after single administration in rats; parameters: species or system Sprague Dawley rats; conditions: Sprague Dawley, rat, plasma, 300 mg/kg; male rats, 300 mpk oral
property: half-life (h)
Field: numeric (h). Do not append units.

Query: Fill in: half-life of COCCN1C[C@@H](n2ccc(F)c2)[C@H](NC(=O)Nc2c(C)c(-c3cnc(C4(F)COC4)nc3)nn2-c2ccccc2)C1 [Compounds of formula (1)] is ___
Result: 1.7

* * *

target: CYP2D6 (Homo sapiens (Human), UniProt P10635)
Sequence (P10635 whole entry): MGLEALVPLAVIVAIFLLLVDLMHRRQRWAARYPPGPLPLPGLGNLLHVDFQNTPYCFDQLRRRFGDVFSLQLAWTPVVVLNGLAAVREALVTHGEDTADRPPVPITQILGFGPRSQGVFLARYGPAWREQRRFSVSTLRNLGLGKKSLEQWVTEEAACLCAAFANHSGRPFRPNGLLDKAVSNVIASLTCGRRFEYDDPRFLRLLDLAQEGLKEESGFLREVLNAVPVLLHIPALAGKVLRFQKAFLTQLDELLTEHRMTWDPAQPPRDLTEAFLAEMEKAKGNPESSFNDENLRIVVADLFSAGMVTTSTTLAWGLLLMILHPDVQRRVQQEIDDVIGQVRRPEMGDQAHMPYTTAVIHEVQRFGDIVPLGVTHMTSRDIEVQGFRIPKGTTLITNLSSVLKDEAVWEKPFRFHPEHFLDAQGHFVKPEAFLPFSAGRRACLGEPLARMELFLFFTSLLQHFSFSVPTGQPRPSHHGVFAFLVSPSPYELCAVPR
property: pIC50
Remember the convention: pIC50 equals -log10 of concentration in molar.

Query: Report pIC50 for COCCN1C[C@@H](n2ccc(F)c2)[C@H](NC(=O)Nc2c(C)c(-c3cnc(C4(F)COC4)nc3)nn2-c2ccccc2)C1 please.
Result: 4.50

* * *

experiment: In vivo pharmacokinetics study after single administration in rats; parameters: species or system Sprague Dawley rats; details: Sprague Dawley, rat, plasma, 2 mg/kg; male rats, 2 mpk intravenous injection
property: half-life (min)
All answers are understood in min, so give the number only.

Query: Sample COCCN1C[C@@H](n2ccc(F)c2)[C@H](NC(=O)Nc2c(C)c(-c3cnc(C4(F)COC4)nc3)nn2-c2ccccc2)C1 — what was its half-life?
Result: 36.6

* * *

assay: In vivo pharmacokinetics study after single administration in rats; design: species or system Sprague Dawley rats; conditions: Sprague Dawley, rat, plasma, 2 mg/kg; male rats, 2 mpk intravenous injection
property: C0 (ng/mL)
State the answer as a number, implicitly in ng/mL.

Query: Please give the measured C0 for this compound: COCCN1C[C@@H](n2ccc(F)c2)[C@H](NC(=O)Nc2c(C)c(-c3cnc(C4(F)COC4)nc3)nn2-c2ccccc2)C1
Result: 3620

* * *

assay: In vivo pharmacokinetics study after single administration in Beagle dogs; settings: dog, plasma, 15 mg/kg; male Beagle dogs, 15 mpk oral
property: Tmax (h)
# value in h; strip the unit string

Query: So what does the record say about Tmax for COCCN1C[C@@H](n2ccc(F)c2)[C@H](NC(=O)Nc2c(C)c(-c3cnc(C4(F)COC4)nc3)nn2-c2ccccc2)C1 ?
Result: 1

* * *

experiment: In vivo pharmacokinetics study after single administration in Beagle dogs; settings: dog, plasma, 2 mg/kg; male Beagle dogs, 2 mpk intravenous injection
property: C0 (ng/mL)
// units = ng/mL; emit number, no label

Query: Consider the compound COCCN1C[C@@H](n2ccc(F)c2)[C@H](NC(=O)Nc2c(C)c(-c3cnc(C4(F)COC4)nc3)nn2-c2ccccc2)C1 [Compounds of formula (1)] and give its measured C0.
Result: 3940
